Reference source for all entries: patent US20230227568A1

Catalogue of Kd values
Target: T1, hu4-1BB-Fc (R&D Systems) (human, UniProt Q07011 24-186)
T1 construct: Bought; also called human 4-1BB; not shown: human IgG Fc of the bought fusion
Assay: SPR (Biacore 8K), hu4-1BB-Fc captured by anti-human IgG Fc; apparent value, 1:1 fit

{"columns": ["Binder", "Kd, pM"],
 "data": [
  ["multimeric protein SEQ ID NO: 44 (designed binder) GVRLWATRQAMLGQVHEVPEGWLIFVAEQEELYVRVQNGFRKVQLEARTPLGGGGSQDSTSDLIPAPPLSKVPLQQNFQDNQFHGKWYVVGQAGNIRLREDKDPIKMMATIYELKEDKSYDVTMVKFDDKKCMYDIWTFVPGSQPGEFTLGKIKSFPGHTSSLVRVVSTNYNQHAMVFFKFVFQNREEFYITLYGRTKELTSELKENFIRFSKSLGLPENHIVFPVPIDQCIDGGGSGGAPEQKLISEEDLGSHHHHHHHHHH", 240],
  ["multimeric protein SEQ ID NO: 42 (designed binder) QDSTSDLIPAPPLSKVPLQQNFQDNQFHGKWYVVGQAGNIRLREDKDPIKMMATIYELKEDKSYDVTMVKFDDKKCMYDIWTFVPGSQPGEFTLGKIKSFPGHTSSLVRVVSTNYNQHAMVFFKFVFQNREEFYITLYGRTKELTSELKENFIRFSKSLGLPENHIVFPVPIDQCIDGAEAAAKEAAAKEAAAKAGVRLWATRQAMLGQVHEVPEGWLIFVAEQEELYVRVQNGFRKVQLEARTPLGGSGGAPEQKLISEEDLGSHHHHHHHHHH", 280],
  ["multimeric protein SEQ ID NO: 47 (designed binder) QDSTSDLIPAPPLSKVPLQQNFQDNQFHGKWYVVGQAGNIRLREDKDPIKMMATIYELKEDKSYDVTMVKFDDKKCMYDIWTFVPGSQPGEFTLGKIKSFPGHTSSLVRVVSTNYNQHAMVFFKFVFQNREEFYITLYGRTKELTSELKENFIRFSKSLGLPENHIVFPVPIDQCIDGGGGGSGGGGSGGGGSKPLDGEYFTLQIRGRERFEMFRELNEALELKDAQAGKEPGGSGGAPEQKLISEEDLGSHHHHHHHHHH", 660],
  ["multimeric protein SEQ ID NO: 39 (designed binder) QDSTSDLIPAPPLSKVPLQQNFQDNQFHGKWYVVGQAGNIRLREDKDPIKMMATIYELKEDKSYDVTMVKFDDKKCMYDIWTFVPGSQPGEFTLGKIKSFPGHTSSLVRVVSTNYNQHAMVFFKFVFQNREEFYITLYGRTKELTSELKENFIRFSKSLGLPENHIVFPVPIDQCIDGGGGGSGVRLWATRQAMLGQVHEVPEGWLIFVAEQEELYVRVQNGFRKVQLEARTPLGGSGGAPEQKLISEEDLGSHHHHHHHHHH", 380],
  ["multimeric protein SEQ ID NO: 38 (designed binder, Trivalent; Self-assembled from its monomer polypeptides) QDSTSDLIPAPPLSKVPLQQNFQDNQFHGKWYVVGQAGNIRLREDKDPIKMMATIYELKEDKSYDVTMVKFDDKKCMYDIWTFVPGSQPGEFTLGKIKSFPGHTSSLVRVVSTNYNQHAMVFFKFVFQNREEFYITLYGRTKELTSELKENFIRFSKSLGLPENHIVFPVPIDQCIDGGGGGSGGGGSGGGGSGVRLWATRQAMLGQVHEVPEGWLIFVAEQEELYVRVQNGFRKVQLEARTPLGGSGGAPEQKLISEEDLGSHHHHHHHHHH", 250],
  ["multimeric protein SEQ ID NO: 40 (designed binder) QDSTSDLIPAPPLSKVPLQQNFQDNQFHGKWYVVGQAGNIRLREDKDPIKMMATIYELKEDKSYDVTMVKFDDKKCMYDIWTFVPGSQPGEFTLGKIKSFPGHTSSLVRVVSTNYNQHAMVFFKFVFQNREEFYITLYGRTKELTSELKENFIRFSKSLGLPENHIVFPVPIDQCIDGGGGGSGGGGSGGGGSGGGGSGGGGSGVRLWATRQAMLGQVHEVPEGWLIFVAEQEELYVRVQNGFRKVQLEARTPLGGSGGAPEQKLISEEDLGSHHHHHHHHHH", 1180]
]}
